Recorded values, source PubChem BioAssay AID1159580.

Assay: chemical genetic growth profiling, strain panel (AID 1159580);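 note: tested at 20 µM; growth read once vehicle control cultures reached saturation at 30 °C; 1 = growth at the plate median or of vehicle wells; lower values mean less growth of the strain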
Conditions: S. cerevisiae deletion strains, growth OD, locus YMR129W, stronger effect = lower value
About 2,000 (36%) of roughly 5,500 compounds were called active. Another 18% or so got no clear call; they are omitted. The list shows a part of the results.
assay-metric: normalized growth

Some solved cases for reference:
CC1(C)C(=O)C=C[C@@]2(C)C1CC(=O)[C@]1(C)C2CC[C@@]2(C)[C@H](c3ccoc3)OC(=O)[C@H]3O[C@]321 (stereo partly drawn) ... 0.971 (inactive)
CC(=O)Oc1ccc2c(c1OC(C)=O)OCC1(O)Cc3c(cc(OC(C)=O)c(OC(C)=O)c3OC(C)=O)C21 (stereo not drawn) ... 1.01 (inactive)

The record that follows has no normalized growth shown yet.
Q: # lookup: normalized growth of COc1ccc(Cl)cc1C(=O)NCCc1ccc(S(=O)(=O)NC(=O)NC2CCCCC2)cc1
Ans: 1.01 (inactive)

----------
// normalized growth lookup, one value per entry
Assay: chemical genetic growth profiling, strain panel (AID 1159580);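 note: tested at 20 µM; growth read once vehicle control cultures reached saturation at 30 °C; 1 = growth at the plate median or of vehicle wells; lower values mean less growth of the strain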
Settings: S. cerevisiae deletion strains, growth OD, locus YGL173C, strain kem1, stronger effect = lower value
Screen size: about 5,500 compounds; about 2,000 (36%) were called active. Inconclusive results (about 18%) are left out. Some of the results follow. Where a SMILES comes first, the peptide text is derived from it.
Give the value as a plain number.

Some solved cases for reference:
CC1(C)C2CC(=O)[C@]3(C)C(CC[C@@]4(C)[C@H](c5ccoc5)OC(=O)[C@H]5O[C@]543)[C@@]2(C)C(=O)C[C@H]1O (some centres undefined) ... 1.02
C[C@@H]1CC[C@@]2(OC1)OC1CC3C4CC=C5C[C@@H](O)CC[C@]5(C)C4CC[C@]3(C)C1[C@@H]2C (some centres undefined) ... 1.01
O=c1ccc2cc(OC3OC(CO)C(O)C(O)C3O)c(O)cc2o1 (centres undefined) ... 0.998

The record that follows has no normalized growth shown yet.
Q: # lookup: normalized growth of COC(=O)[C@H](Cc1ccccc1)NC(=O)[C@@H](N)CC(=O)O (H-Asp-Phe-OMe)
Ans: 1.01

----------
// normalized growth lookup, one value per entry
Assay: chemical genetic growth profiling, strain panel (AID 1159580);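 note: tested at 20 µM; growth read once vehicle control cultures reached saturation at 30 °C; 1 = growth at the plate median or of vehicle wells; lower values mean less growth of the strain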
Conditions: S. cerevisiae deletion strains, growth OD, locus YDR001C, strain nth1, stronger effect = lower value
The campaign covered roughly 5,500 compounds. About 2,000 (36%) were called active. Inconclusive results (about 18%) are left out. This is one part of the list.
Give the value as a plain number.

Some solved cases for reference:
C[C@]12C=CC(=O)C=C1CCC1C2[C@@H](O)C[C@@]2(C)C1CC[C@]2(O)C(=O)COP(=O)(O)O (some centres undefined) ... 1
CCCCCc1c2c(cc(O)c1C(=O)O)OC(=O)c1c(cc(OC)cc1C(=O)CCCC)O2 ... 1
O=c1ccc2cc(OC3OC(CO)C(O)C(O)C3O)c(O)cc2o1 (centres undefined) ... 0.972

The record that follows has no normalized growth shown yet.
Q: # lookup: normalized growth of COc1cc(OC)c2c(=O)c(OC)c(-c3ccc(OC)c(OC)c3)oc2c1
Ans: 1.02

----------
Assay: chemical genetic growth profiling, strain panel (AID 1159580);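 note: tested at 20 µM; growth read once vehicle control cultures reached saturation at 30 °C; 1 = growth at the plate median or of vehicle wells; lower values mean less growth of the strain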
Settings: S. cerevisiae deletion strains, growth OD, locus YMR001C, strain CDC5, stronger effect = lower value
In all, about 5,500 compounds went through this assay and about 2,000 (36%) were called active. Inconclusive results (about 18%) are left out. This is one part of the list.
// normalized growth lookup, one value per entry
Give the value as a plain number.

Some solved cases for reference:
CCNC(=S)N/N=C\c1cc(Cl)cc(Cl)c1O ... 0.923
COc1ccc(/C=C2/C(=O)Nc3ccccc32)cc1 ... 0.88

Q: # lookup: normalized growth of Oc1c(Br)cc(Br)cc1/C=N\n1cnnc1
Ans: 0.903
